Experiment: Lipophilicity, logD of compound at pH 7.4
Format: physicochemical
Conditions: buffer
Provide the recorded logD for the entries that follow.

Study these solved cases before continuing.
| querySmiles | logD |
| --- | --- |
| CC(C)CCc1sc(NC(=O)c2cc(NC(=O)c3ccc(/C=C/c4ccc(C(F)(F)F)cc4)cc3)cn2C)nc1C(=O)NCCCN(C)C | 5.85 |
| CC(C)CCc1sc(NC(=O)c2cc(NC(=O)c3cc(NC(=N)c4ccc(F)cc4)cn3C)cn2C)nc1C(=O)NCCN1CCOCC1 | 4.17 |
| CC(C)CCc1sc(NC(=O)c2cc(NC(=O)c3cc(NC(=O)c4ccc(F)cc4)cn3C)cn2C)nc1C(=O)NCCCN(C)C | 3.09 |
| CC(C)CCc1sc(NC(=O)c2cc(NC(=O)c3cc(NC(=O)c4ccc(C(F)(F)F)cc4)cn3C)cn2C)nc1C(=O)NCCCN(C)C | 3.83 |

# per-item lookup of logD; items listed below
1. CC(C)CCc1sc(NC(=O)c2cc(NC(=O)c3ccc(/C=C/c4ccc(F)cc4)nc3)cn2C)nc1C(=O)NCCCN(C)C
2. CC(C)CCc1sc(NC(=O)c2cc(NC(=O)c3cc(NC(=N)c4ccc(F)cc4)cn3C)cn2C)nc1C(=O)NCCCN(C)C
3. CC(C)CCc1sc(NC(=O)c2cc(NC(=O)c3cc(NC(=N)c4cccc(F)c4)cn3C)cn2C)nc1C(=O)NCCN1CCOCC1
4. COc1cccc(C(=N)Nc2cc(C(=O)Nc3cc(C(=O)Nc4cc(C(=O)NCCCN(C)C)n(C)c4)n(C)c3)n(C)c2)c1
5. CC(C)CCc1sc(NC(=O)c2cc(NC(=O)c3ccc(/C=C/c4cccc(F)c4)cc3)cn2C)nc1C(=O)NCCCN(C)C
6. CC(C)CCc1sc(NC(=O)c2cc(NC(=O)c3ccc(/C=C/c4ccc(F)cc4)cc3)cn2C)nc1C(=O)NCCCN(C)C

(A)
1: 4.13; 2: 2.56; 3: 4.51; 4: -0.29; 5: 5.12; 6: 5.12

# per-item lookup of logD; items listed below
1. CN(C)CCCNC(=O)c1cc(NC(=O)c2cc(NC(=O)c3cc(NC(=N)c4ccccc4)cn3C)cn2C)cn1C
2. CC(C)CCc1sc(NC(=O)c2cc(NC(=O)c3cc(NC(=N)c4ccc(Cl)cc4)cn3C)cn2C)nc1C(=O)NCCN1CCOCC1
3. COc1cccc(C(=N)Nc2cc(C(=O)Nc3cc(C(=O)Nc4nc(C(=O)NCCCN(C)C)c(CCC(C)C)s4)n(C)c3)n(C)c2)c1
4. CC(C)CCc1sc(NC(=O)c2cc(NC(=O)c3cc(NC(=N)c4cccc(Cl)c4)cn3C)cn2C)nc1C(=O)NCCCN(C)C
5. COc1cc(/C=C/c2ccc(C(=O)Nc3cc(C(=O)Nc4nc(C(=O)NCCCN(C)C)c(CCC(C)C)s4)n(C)c3)cn2)ccc1F

(A)
-0.35
4.74
2.48
3.28
3.98
